Below, each entry is listed alongside its reported GI50.
system: CCRF-CEM; assay: NCI tumour cell line growth inhibition, 48 h
Active and inactive are the calls of the source. No stated cut-off is given here; in the data, active = GI50 up to about 1.1 µM and inactive = higher. Where a SMILES comes first, the peptide text is derived from it.

Recorded results for 3 compounds are shown here.
compound	GI50
Cc1cc(=O)n2c3c(c4c(cc13)c(CO)cc(=O)n4C)OC2	9.46 µM (inactive)
CCC(Nc1ncnc2nc[nH]c12)C(=O)O (centres undefined)	> 100 µM (inactive)
CNC(=O)CNC(=O)C(NC(=O)CNC(=O)C1CCCN1C(=O)C(C)NC(=O)C(NC(C)=O)C(C)C)C(C)C (centres undefined) (Ac-VAPGVG-NHMe; configuration not given here)	> 100 µM (inactive)

Could you now consider this next compound?
Prompt: Value wanted: GI50 (CCRF-CEM) of entry CC1/C=C/C=C/CC/C=C/C=C/C=C/C=C/C(OC2OC(C)C(O)C(N)C2O)CC2OC(CC(O)C(O)CCC(O)CC(O)CC(O)CC(=O)OC(C)C(C)C1O)CC(O)C2C(=O)O (centres undefined)
Completion: 28.8 µM (inactive)

----------
test system: NCI-H23; assay: NCI tumour cell line growth inhibition, 48 h
Active and inactive are the calls of the source. Rule as the data show it: active = GI50 up to about 1.1 µM and inactive = higher.
measured-endpoint: GI50

Recorded results for 3 compounds are shown here.
compound	result
CCOC(=O)Cn1c(=O)n(C)c(=O)c2[nH]cnc21	> 100 µM (inactive)
CCOC(=O)CCSS(=O)(=O)C(F)(F)F	> 100 µM (inactive)
O=C1Oc2ccccc2C(=O)/C1=C\Nc1nc(-c2ccccc2)cs1	16.7 µM (inactive)

Prompt: # query: GI50 of entry CC(C)(C)N1NC1C1NN1C(C)(C)C (stereo not given)
Completion: > 100 µM (inactive)

Prompt: # query: GI50 of entry CC(C)(C)[Si](C)(C)OCC1OC(n2cnc3c(NC(=O)c4ccccc4)ncnc32)CC1O (stereo not given)
Completion: 48.9 µM (inactive)

Prompt: # query: GI50 of entry CCCC/C=C/C/C=C/CCCCCCCCC(=O)OCC1CCCN2CCCCC12 (stereo not given)
Completion: > 100 µM (inactive)

Prompt: # query: GI50 of entry O=C1Oc2ccccc2C(=O)/C1=C/N1C(=O)CNC1=S
Completion: > 100 µM (inactive)

Prompt: # query: GI50 of entry COc1cc(C=O)cc(/C=N/c2ccccn2)c1O
Completion: > 100 µM (inactive)

Prompt: # query: GI50 of entry COC(=O)[C@@H]1O[C@]12[C@@H](CO[Si](C)(C)C(C)(C)C)O[C@@H](n1cc(C)c(=O)[nH]c1=O)[C@@H]2O[Si](C)(C)C(C)(C)C
Completion: 15.8 µM (inactive)

Prompt: # query: GI50 of entry O=C1C(=C2SC(c3ccccc3)(c3ccccc3)c3ccccc32)C(=O)c2ccccc21
Completion: > 100 µM (inactive)

----------
system: SNB-78; experiment: NCI tumour cell line growth inhibition, 48 h
Calls of active or inactive are those of the source. Cut-off read from the data, not from the text of the source: active = GI50 up to about 1.1 µM and inactive = higher.
Below, each entry is listed alongside its reported GI50.

Recorded results for 5 compounds are shown here.
compound	GI50
CC(=O)c1ccc(NC(=O)COC(=O)c2cccc3c(=O)c4ccccc4[nH]c23)cc1	31.4 µM (inactive)
NCCSSCc1ccccc1CSSCCN	> 100 µM (inactive)
COC(=O)C(=O)C1(CCC(C)=O)c2ccccc2-c2c(C)ccc(C)c21 (stereo unspecified)	19 µM (inactive)
COc1cc2c(cc1O)[C@H](C)C(c1ccc(Cl)cc1)O2 (stereo partly specified)	21.3 µM (inactive)
CC1C(=O)C(C)C(c2cccs2)N(N=O)C1c1cccs1 (stereo unspecified)	> 68.2 µM (inactive)

Prompt: # query: GI50 of entry COC(=O)C1=CC2OC13CC1CCC3(C2=O)C1(C)C (stereo unspecified)
Completion: 14.4 µM (inactive)

Prompt: # query: GI50 of entry CC(C)NCCNC(=O)c1ccccc1Nc1c(Cl)cccc1Cl
Completion: 14.6 µM (inactive)

Prompt: # query: GI50 of entry COc1ccccc1Cc1nc(-c2ccccc2)nn(C2OC(COC(C)=O)C(OC(C)=O)C(OC(C)=O)C2OC(C)=O)c1=S (stereo unspecified)
Completion: 18.2 µM (inactive)

Prompt: # query: GI50 of entry O=C(/C=C\c1cccc2ccccc12)c1ccc(F)cc1
Completion: 19.8 µM (inactive)

Prompt: # query: GI50 of entry C/C(CC(=O)Nc1ccc(NC(=O)C/C(C)=N\NC(N)=O)cc1)=N/NC(N)=O
Completion: > 100 µM (inactive)

Prompt: # query: GI50 of entry O=C(Cc1ccccc1)NN1C(=O)C(Cl)C1c1ccc([N+](=O)[O-])cc1 (stereo unspecified)
Completion: 45.9 µM (inactive)

Prompt: # query: GI50 of entry C[Si](C)(C)CN1C(=O)c2ccccc2C1(O)c1ccccc1 (stereo unspecified)
Completion: > 83.9 µM (inactive)

Prompt: # query: GI50 of entry COc1ccc(/C(=N/NC(N)=O)C2(O)C(=O)Nc3ccc([N+](=O)[O-])cc32)cc1 (stereo unspecified)
Completion: 17.8 µM (inactive)

Prompt: # query: GI50 of entry Cc1cccc(C)c1N1C(=O)C(=O)C(c2nc3ccccc3s2)/C(=N/NC(=O)NN)C1=O (stereo unspecified)
Completion: > 100 µM (inactive)

Prompt: # query: GI50 of entry CCN(CC)c1ccc2cc3ccc(N(CC)CC)cc3[o+]c2c1
Completion: 2.43 µM (inactive)

Prompt: # query: GI50 of entry Nc1ccc2ncc(Nc3ccc(Cl)c(Cl)c3)nc2c1
Completion: 26.9 µM (inactive)
